- Test system: Escherichia coli TOP10;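 note: peptides expressed intracellularly from a pBAD plasmid library in pooled LB shake-flask culture, induced with 0.3% L-arabinose, DNA abundance read by NGS, three biological replicates, DESeq2 with apeglm shrinkage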
- assayName: shrunken log2 fold change of peptide-encoding DNA abundance (4.5 h post-induction vs induction); higher = less antimicrobial activity (less host growth inhibition)
- assaySetup: time post-induction: 4.5 h; library: site-saturation at positions 5, 18, 19, 20
Let's look at some sequences and their measured shrunken log2 fold change.
assayReadout: shrunken log2 fold change

# seqText, assayReadout, valueObserved
records = [
    ("RRIRNRPPRLPRPRPRPQRPPRP", "shrunken log2 fold change", 0.206),
    ("RRIRHRPPRLPRPRPRPNLFPRP", "shrunken log2 fold change", -0.0861),
    ("RRIRDRPPRLPRPRPRPNQIPRP", "shrunken log2 fold change", -0.044),
    ("RRIRYRPPRLPRPRPRPMLQPRP", "shrunken log2 fold change", -0.229),
    ("RRIRCRPPRLPRPRPRPKHDPRP", "shrunken log2 fold change", -0.0567),
    ("RRIRLRPPRLPRPRPRPIMHPRP", "shrunken log2 fold change", 0.0628),
    ("RRIRERPPRLPRPRPRPHREPRP", "shrunken log2 fold change", -0.0302),
    ("RRIRHRPPRLPRPRPRPHKQPRP", "shrunken log2 fold change", -0.225),
    ("RRIRHRPPRLPRPRPRPFVGPRP", "shrunken log2 fold change", -0.31),
    ("RRIRGRPPRLPRPRPRPHQQPRP", "shrunken log2 fold change", 0.101),
    ("RRIRHRPPRLPRPRPRPADSPRP", "shrunken log2 fold change", -0.039),
    ("RRIRSRPPRLPRPRPRPVIVPRP", "shrunken log2 fold change", -0.191),
    ("RRIRPRPPRLPRPRPRPRTSPRP", "shrunken log2 fold change", 0.59),
    ("RRIRYRPPRLPRPRPRPMDNPRP", "shrunken log2 fold change", -0.0386),
    ("RRIRDRPPRLPRPRPRPYRWPRP", "shrunken log2 fold change", -0.146),
    ("RRIRFRPPRLPRPRPRPCWLPRP", "shrunken log2 fold change", -0.165),
    ("RRIRMRPPRLPRPRPRPLVRPRP", "shrunken log2 fold change", 0.51),
    ("RRIRYRPPRLPRPRPRPDYNPRP", "shrunken log2 fold change", -0.475),
    ("RRIRSRPPRLPRPRPRPQEVPRP", "shrunken log2 fold change", -0.0423),
    ("RRIRERPPRLPRPRPRPVSMPRP", "shrunken log2 fold change", -0.295),
    ("RRIRHRPPRLPRPRPRPCEHPRP", "shrunken log2 fold change", -0.00546),
    ("RRIRMRPPRLPRPRPRPWEPPRP", "shrunken log2 fold change", 0.127),
    ("RRIRTRPPRLPRPRPRPTKLPRP", "shrunken log2 fold change", -0.0813),
    ("RRIRDRPPRLPRPRPRPKMHPRP", "shrunken log2 fold change", 0.159),
    ("RRIRNRPPRLPRPRPRPNVWPRP", "shrunken log2 fold change", 0.0184),
    ("RRIRNRPPRLPRPRPRPYWMPRP", "shrunken log2 fold change", -0.26),
    ("RRIRCRPPRLPRPRPRPCNKPRP", "shrunken log2 fold change", -0.671),
    ("RRIRLRPPRLPRPRPRPRQNPRP", "shrunken log2 fold change", 0.108),
    ("RRIRRRPPRLPRPRPRPGKKPRP", "shrunken log2 fold change", 0.0542),
    ("RRIRARPPRLPRPRPRPVYTPRP", "shrunken log2 fold change", -0.159),
    ("RRIRCRPPRLPRPRPRPRSYPRP", "shrunken log2 fold change", -0.233),
    ("RRIRPRPPRLPRPRPRPEACPRP", "shrunken log2 fold change", 0.321),
    ("RRIRFRPPRLPRPRPRPQFSPRP", "shrunken log2 fold change", -0.401),
    ("RRIRSRPPRLPRPRPRPHHFPRP", "shrunken log2 fold change", 0.0761),
    ("RRIRMRPPRLPRPRPRPSNCPRP", "shrunken log2 fold change", -0.376),
    ("RRIRIRPPRLPRPRPRPHIRPRP", "shrunken log2 fold change", -0.297),
    ("RRIRSRPPRLPRPRPRPSLTPRP", "shrunken log2 fold change", -0.138),
    ("RRIRVRPPRLPRPRPRPMKWPRP", "shrunken log2 fold change", -0.068),
    ("RRIRRRPPRLPRPRPRPRVNPRP", "shrunken log2 fold change", 0.398),
    ("RRIRPRPPRLPRPRPRPHDWPRP", "shrunken log2 fold change", -0.0184),
    ("RRIRPRPPRLPRPRPRPPYMPRP", "shrunken log2 fold change", -0.288),
    ("RRIRTRPPRLPRPRPRPHIWPRP", "shrunken log2 fold change", -0.103),
    ("RRIRIRPPRLPRPRPRPTASPRP", "shrunken log2 fold change", 0.132),
    ("RRIRFRPPRLPRPRPRPRIDPRP", "shrunken log2 fold change", -0.0186),
    ("RRIRARPPRLPRPRPRPKTEPRP", "shrunken log2 fold change", 0.38),
    ("RRIRARPPRLPRPRPRPKILPRP", "shrunken log2 fold change", -0.168),
    ("RRIRDRPPRLPRPRPRPCITPRP", "shrunken log2 fold change", -0.128),
    ("RRIRWRPPRLPRPRPRPITHPRP", "shrunken log2 fold change", -0.126),
    ("RRIRWRPPRLPRPRPRPKCFPRP", "shrunken log2 fold change", -0.076),
    ("RRIRERPPRLPRPRPRPEYYPRP", "shrunken log2 fold change", -0.00813),
    ("RRIRYRPPRLPRPRPRPPTYPRP", "shrunken log2 fold change", -0.615),
    ("RRIRPRPPRLPRPRPRPAVDPRP", "shrunken log2 fold change", 0.249),
    ("RRIRGRPPRLPRPRPRPMTRPRP", "shrunken log2 fold change", 0.519),
    ("RRIRPRPPRLPRPRPRPYLQPRP", "shrunken log2 fold change", -0.831),
    ("RRIRERPPRLPRPRPRPIRIPRP", "shrunken log2 fold change", -0.00822),
    ("RRIRRRPPRLPRPRPRPIFCPRP", "shrunken log2 fold change", 0.0473),
    ("RRIRPRPPRLPRPRPRPEASPRP", "shrunken log2 fold change", 0.0221),
    ("RRIRIRPPRLPRPRPRPEFHPRP", "shrunken log2 fold change", 0.0992),
    ("RRIRARPPRLPRPRPRPNYQPRP", "shrunken log2 fold change", -0.418),
    ("RRIRQRPPRLPRPRPRPCLLPRP", "shrunken log2 fold change", -2.33),
    ("RRIRPRPPRLPRPRPRPGMFPRP", "shrunken log2 fold change", -0.0259),
    ("RRIRWRPPRLPRPRPRPSHCPRP", "shrunken log2 fold change", -0.689),
    ("RRIRLRPPRLPRPRPRPPPEPRP", "shrunken log2 fold change", 1.35),
]
